Test system: DU145
MEASUREMENT_PROTOCOL: Euclidean distance of Cell Painting phenotypic profile (signed KS, 77 features) to DMSO centroid (dimensionless distance); 5 or 10 uM (library dependent); higher = stronger phenotypic change vs DMSO (phenoactivity)
PARTICULARS: 48 h
Here, each record is paired with measured Euclidean distance data.
// no unit string in output, number only

* O=C(c1ccccc1)c1ccc2n1CCC2C(=O)O (stereo not given) | 0.701

Reported Euclidean distance ( C[C@@H](NC(=O)c1ncnc(N)c1Cl)c1ncc(C(=O)Nc2cc(C(F)(F)F)c(Cl)cn2)s1 ) = 1.59

get_value(item= C[N+]1(C)[C@@H]2C[C@@H](OC(=O)C(O)(c3cccs3)c3cccs3)C[C@H]1[C@@H]1O[C@@H]12 [Tiotropium Bromide hydrate] , readout=Euclidean distance) returns 0.73

Lab note: Cc1cccc(Nc2ccncc2S(=O)(=O)NC(=O)NC(C)C)c1 [Torsemide] gave Euclidean distance of 0.572

For record O=C(CCCN1CCN(c2ccccn2)CC1)c1ccc(F)cc1 the listed Euclidean distance is 0.729

GET /value?item= C[C@]12CC[C@@H]3c4ccc(O)cc4C[C@@H](CCCCCCCCC[S+]([O-])CCCC(F)(F)C(F)(F)F)[C@H]3[C@@H]1CC[C@@H]2O (stereo not given in full) &field=Euclidean distance returns 0.894

GET /value?item= C[C@]1(c2nc3c(C(N)=O)cccc3[nH]2)CCCN1 &field=Euclidean distance returns 0.896

Measured Euclidean distance, CC(C)N1CCN(Cc2cnc(-c3cc(-c4cccc5[nH]ccc45)cc4[nH]ncc34)o2)CC1 : 3.41

Measured Euclidean distance of O=C(O)C1(C(=O)O)CCC1.[NH2-].[NH2-].[Pt+2] : 2.65

----------
In this section we review reported Euclidean distance values for a set of compounds.
Tested on: FB
MEASUREMENT_PROTOCOL: Euclidean distance of Cell Painting phenotypic profile (signed KS, 77 features) to DMSO centroid (dimensionless distance); 5 or 10 uM (library dependent); higher = stronger phenotypic change vs DMSO (phenoactivity)
PARTICULARS: 48 h
Just the number, please.

Some compounds with recorded Euclidean distance:
* O=C(Nc1cccc(Cl)c1)c1ccccn1 | 0.785
* Cn1c(=O)c2c(ncn2CC2OCCO2)n(C)c1=O | 0.965

Lab note: next compound to report on.
For reference, reported Euclidean distance for CCCSc1ccc2[nH]c(NC(=O)OC)nc2c1 stands at 2.49

----------
Listed below: Euclidean distance values for each entry.
Tested on: HEPG2
MEASUREMENT_PROTOCOL: Euclidean distance of Cell Painting phenotypic profile (signed KS, 77 features) to DMSO centroid (dimensionless distance); 5 or 10 uM (library dependent); higher = stronger phenotypic change vs DMSO (phenoactivity)
PARTICULARS: 48 h
Lab note: jot down the number only; don't add units.

- COc1cc(C(C)=O)ccc1OCCCN1CCC(c2noc3cc(F)ccc23)CC1: 0.503
- O=C1Nc2ccc(I)cc2/C1=C/c1cc(Br)c(O)c(Br)c1: 0.668
- Nc1ccn([C@@H]2CS[C@H](CO)O2)c(=O)n1: 1.07

Query compound follows.
# lookup: COc1cc(F)c(F)c(Nc2ccc(I)cc2F)c1NS(=O)(=O)C1(C[C@H](O)CO)CC1 [Refametinib (RDEA119. Bay 86-9766)] on HEPG2, Euclidean distance = 1.79

----------
Examples of compounds with documented Euclidean distance follow.
System: FB
MEASUREMENT_PROTOCOL: Euclidean distance of Cell Painting phenotypic profile (signed KS, 77 features) to DMSO centroid (dimensionless distance); 5 or 10 uM (library dependent); higher = stronger phenotypic change vs DMSO (phenoactivity)
PARTICULARS: 48 h
Structures can show the parent of a compound that is named as a salt.
Respond with the number and no other words.

• CCOC(=O)C1=C(COCCN)NC(C)=C(C(=O)OC)C1c1ccccc1Cl (stereo not drawn) [Amlodipine Besylate] = 1.18

Looking up CO[C@H]1O[C@@H]2O[C@@]3(C)CC[C@H]4[C@H](C)CC[C@@H]([C@H]1C)[C@@]24OO3 , I see its Euclidean distance listed as 1.28

Euclidean distance recorded for this compound, CC1(C)S[C@@H]2[C@H](NC(=O)[C@H](N)c3ccccc3)C(=O)N2[C@H]1C(=O)OCOC(=O)[C@@H]1N2C(=O)C[C@H]2S(=O)(=O)C1(C)C [Sultamicillin] , is 1.26

The recorded Euclidean distance for entry CCCN(CCC)CCc1cccc2c1CC(=O)N2 [Ropinirole HCl] equals 1.3

The value of Euclidean distance measured for the compound Cc1ccc(NC(=O)c2ccc(CN3CCN(C)CC3)cc2)cc1Nc1nc(-c2cccnc2)cs1 turned out to be 3.16

Just so you know, measured Euclidean distance for O=S1(=O)CCN(CN2CCS(=O)(=O)NC2)CN1 came out at 1.04

Looking up C[C@@H](Oc1cc(-n2cnc3ccc(CN4CCN(C)CC4)cc32)sc1C(N)=O)c1ccccc1C(F)(F)F , I see its Euclidean distance listed as 3.6

Just so you know, measured Euclidean distance for CN(NC(=O)CC(=O)NN(C)C(=S)c1ccccc1)C(=S)c1ccccc1 [Elesclomol (STA-4783)] came out at 6.42

----------
Test system: 786-O
MEASUREMENT_PROTOCOL: Euclidean distance of Cell Painting phenotypic profile (signed KS, 77 features) to DMSO centroid (dimensionless distance); 5 or 10 uM (library dependent); higher = stronger phenotypic change vs DMSO (phenoactivity)
PARTICULARS: 48 h
Threshold check on Euclidean distance: at or above 2 gives 1, strictly below gives -1.

- Cc1ccc([N+](=O)[O-])cc1S(=O)(=O)N(C)/N=C/c1cnc2ccc(Br)cn12: 1

Proceed to the following item.
Prompt: Assess whether reported Euclidean distance for CS(=O)(=O)c1ccc(C(=O)Nc2ccc(Cl)c(-c3ccccn3)c2)c(Cl)c1 [Vismodegib (GDC-0449)] sits at 2 or higher.
Completion: -1

----------
Test system: A549
MEASUREMENT_PROTOCOL: Euclidean distance of Cell Painting phenotypic profile (signed KS, 77 features) to DMSO centroid (dimensionless distance); 5 or 10 uM (library dependent); higher = stronger phenotypic change vs DMSO (phenoactivity)
PARTICULARS: 48 h
Parameter Euclidean distance: see the listing below.
# respond with the number and nothing more

See these solved cases before continuing.
- COc1ccc(CC2c3cc(OC)c(OC)cc3CC[N+]2(C)CCC(=O)OCCCCCOC(=O)CC[N+]2(C)CCc3cc(OC)c(OC)cc3C2Cc2ccc(OC)c(OC)c2)cc1OC (stereo not drawn) [Atracurium Besylate]: 0.711
- Cc1nc2n(c(=O)c1CCN1CCC(c3noc4cc(F)ccc34)CC1)CCCC2 [Risperidone]: 0.71
- O=c1c(O)c(-c2ccc(O)c(O)c2)oc2cc(O)cc(O)c12 [Quercetin Dihydrate]: 1.01
- C[C@H]1O[C@@H](O[C@H]2CC[C@@]3(C)[C@@H](CC[C@]4(C)[C@@H]3C=C[C@]35OC[C@@]6(CCC(C)(C)C[C@H]63)[C@@H](O)C[C@]54C)[C@]2(C)CO)[C@H](O)[C@@H](O[C@@H]2O[C@H](CO)[C@@H](O)[C@H](O)[C@H]2O)[C@H]1O [Saikosaponin A]: 2.42
- C#C[C@]1(O)CC[C@H]2[C@@H]3CCC4=CC(=O)CC[C@@H]4[C@H]3C(=C)C[C@@]21CC [Etonogestrel]: 0.713
- COC(=O)[C@H](c1ccccc1Cl)N1CCc2sccc2C1 [Clopidogrel]: 2.3

Now, please, on to the next compound.
Documented Euclidean distance of Cc1c(-c2ccc(O)cc2)n(Cc2ccc(OCCN3CCCCCC3)cc2)c2ccc(O)cc12 [Bazedoxifene Acetate] : 4.78

----------
System: DU145
MEASUREMENT_PROTOCOL: Euclidean distance of Cell Painting phenotypic profile (signed KS, 77 features) to DMSO centroid (dimensionless distance); 5 or 10 uM (library dependent); higher = stronger phenotypic change vs DMSO (phenoactivity)
PARTICULARS: 48 h
Where a name gives a salt, the structure may show the parent alone.
MEASURED_ENDPOINT: Euclidean distance

Worked set:
• CCCCCCCCCC(=O)OC1(c2ccc(Cl)cc2)CCN(CCCC(=O)c2ccc(F)cc2)CC1 [Haloperidol Decanoate] = 1.01
• COc1cc(O)c2c(c1)oc(=O)c1c3cc(O)c(O)cc3oc21 = 1.02

Then there is this compound:
Let me check: CN(C)CCC(c1ccc(Cl)cc1)c1ccccn1 (stereo not drawn) [Chlorpheniramine Maleate] , system DU145, measured Euclidean distance is 1.01

----------
Tested on: DU145
MEASUREMENT_PROTOCOL: Euclidean distance of Cell Painting phenotypic profile (signed KS, 77 features) to DMSO centroid (dimensionless distance); 5 or 10 uM (library dependent); higher = stronger phenotypic change vs DMSO (phenoactivity)
PARTICULARS: 48 h
Structures can show the parent of a compound that is named as a salt.
Classify as follows. Reported Euclidean distance greater than or equal to 1: criterion met. Reported Euclidean distance below: criterion not met.

* CN(CCOc1ccc(CC2SC(=O)NC2=O)cc1)c1ccccn1 (configuration not stated) [Rosiglitazone maleate] | criterion met
* CNC(=O)c1nn(C)c2c1C(C)(C)Cc1cnc(Nc3ccc(N4CCN(C)CC4)cc3)nc1-2 | criterion met
* CC(C)NC[C@H](O)COc1ccc(CCOCC2CC2)cc1 [Levobetaxolol HCl] | criterion not met
* COc1cc2nc(N3CCCN(C)CC3)nc(NC3CCN(Cc4ccccc4)CC3)c2cc1OC | criterion met
* CC(C)C[C@@H](C=O)NC(=O)[C@H](CC(C)C)NC(=O)[C@H](CC(C)C)NC(=O)OCc1ccccc1 | criterion met
* COc1ccc2[nH]cc(CCNC(C)=O)c2c1 | criterion not met
* CC(C)(C)NCC(O)c1ccc(O)c(CO)c1 (configuration not stated) [Salbutamol] | criterion met
* Nc1cc(Cl)c(N=C2NCCN2)c(Cl)c1 [Apraclonidine HCl] | criterion not met

Prompt: Answer whether Euclidean distance of COc1cc2c(cc1Cc1cccc(Cl)c1F)c(=O)c(C(=O)O)cn2[C@H](CO)C(C)C is greater than or equal to 1.
Completion: criterion met

Prompt: Can COc1cc(CNC(=O)CCCC/C=C\C(C)C)ccc1O be said to have Euclidean distance at or above 1?
Completion: criterion not met

Prompt: Determine whether this compound has Euclidean distance no lower than 1: c1ccc(C2CN3CCSC3=N2)cc1 (single isomer, unassigned; (-)) [(-)-Tetramisole]
Completion: criterion not met
